The measured values listed here are drawn from paper PMC9090415.

# subject-of-test: P. falciparum apicoplast DNA polymerase (Pf-apPOL) (Plasmodium falciparum)
# Sequence (Q8ILY1 entry or part of it): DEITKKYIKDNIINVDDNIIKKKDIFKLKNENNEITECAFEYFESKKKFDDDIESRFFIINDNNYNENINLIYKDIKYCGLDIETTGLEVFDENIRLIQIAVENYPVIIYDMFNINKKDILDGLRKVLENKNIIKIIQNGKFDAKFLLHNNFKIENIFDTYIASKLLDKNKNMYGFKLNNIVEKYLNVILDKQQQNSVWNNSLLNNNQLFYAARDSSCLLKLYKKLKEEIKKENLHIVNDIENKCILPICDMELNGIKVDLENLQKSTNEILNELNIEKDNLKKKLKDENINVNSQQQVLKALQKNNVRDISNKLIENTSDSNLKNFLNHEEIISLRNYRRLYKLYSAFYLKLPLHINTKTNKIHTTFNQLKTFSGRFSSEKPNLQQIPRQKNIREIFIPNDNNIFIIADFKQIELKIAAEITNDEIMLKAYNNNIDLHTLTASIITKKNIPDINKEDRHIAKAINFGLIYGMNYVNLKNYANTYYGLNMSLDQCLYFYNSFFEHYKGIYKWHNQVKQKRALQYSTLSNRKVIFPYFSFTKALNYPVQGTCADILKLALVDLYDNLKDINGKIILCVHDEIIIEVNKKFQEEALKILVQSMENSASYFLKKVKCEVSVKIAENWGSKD
# assay-notes: Fluorescence-based high-throughput DNA polymerase assay (molecular beacon), primary screen and dose-response;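 note: test concentration in µM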
# Type: biochemical
# condition-info: DRC-1; 180'; concentration 20
// % inhibition apPOL 180' lookup, one value per entry
measure: % inhibition apPOL 180' (%)

{"compound": "Cc1ccc(NC(=O)Cn2ccc3c(=O)[nH]ccc32)cc1F [Molecule 48, O=C(Cn1ccc2c1cc[nH]c2=O)Nc1ccc(c(c1)F)C]", "subject-of-test": "P. falciparum apicoplast DNA polymerase (Pf-apPOL) (Plasmodium falciparum)", "unit-string": "%", "recorded-measurement": 31.5724}
{"compound": "OC(C#Cc1ccccc1)c1ccco1 (stereo not shown)", "subject-of-test": "P. falciparum apicoplast DNA polymerase (Pf-apPOL) (Plasmodium falciparum)", "unit-string": "%", "recorded-measurement": 73.4768}
{"compound": "O=C1C(=Cc2ccncc2)Oc2c1ccc1c2CN(Cc2ccc3c(c2)OCO3)CO1", "subject-of-test": "P. falciparum apicoplast DNA polymerase (Pf-apPOL) (Plasmodium falciparum)", "unit-string": "%", "recorded-measurement": 75.9569}
{"compound": "O=C(O)CC1SC(c2ccc3c(c2)OCO3)=NC1=O (stereo not shown)", "subject-of-test": "P. falciparum apicoplast DNA polymerase (Pf-apPOL) (Plasmodium falciparum)", "unit-string": "%", "recorded-measurement": 9.6301}
